- Tested on: MCF7 breast
- measurement-description: NCI tumour cell line growth inhibition, 48 h
reported-property: TGI (µM)
Answers are plain numbers, in µM.

Field: example entries. Status: answers known.
Oc1c(Br)cc(/C=C/c2cccc(/C=C/c3cc(Br)c(O)c(Br)c3)n2)cc1Br = 42.5
O=c1cc(N=Nc2ccc(Cl)c(Cl)c2)[nH]c(=O)[nH]1 = 3.99
CC(C)C[C@H](NC(=O)[C@H](Cc1ccc(F)cc1)NC(=O)c1ccccn1)B(O)O = 0.166
CC1(C)NCCC[C@]2(C)[C@H]3CC[C@@H]4[C@H]5[C@H](C(=O)/C=C/c6ccccn6)CC[C@]5(CO)CC[C@@]4(C)[C@]3(C)CC[C@@H]12 = 5.8
CCOC(=O)C#Cc1c(C(=O)OCC)nnn1Cc1ccc([N+](=O)[O-])cc1 = 7.22
CCOC(=O)c1c(C)n(C)c2c1cc(O)c1[nH]c3c(c12)CCCC3 = 19.4

Quick request: TGI for each listed item, please.
1. COc1cc(-c2csc(NC(=O)Nc3ccc(C(F)(F)F)cc3)n2)cc(OC)c1OC
2. CC(NC(=O)c1ccc(NP(=O)(OCc2ccc([N+](=O)[O-])o2)N(C)CCCCCl)cc1)c1ccc(OCC2CCCCC2)c(C(N)=O)c1 (configuration not stated)
3. OCCNc1nc(Nc2ccc(Cl)c(Cl)c2)nc2ccccc12
4. CN(C)CCNc1c2ccccc2nc2oc3ccccc3c12
5. Fc1cccc(-n2ccc(-c3ccccc3)nc2=S)c1
6. CC(C)(C)OC(=O)NCCCC(=O)NC1(c2cc3ccccc3s2)CCCCC1
7. O=C(Nc1cccc(Cl)c1)c1cccc(NC2=C(Cl)C(=O)N(Cc3ccccc3)C2=O)c1
8. O=C(N/N=C/c1ccc(O)cc1O)c1cccc(Nc2ccnc(C(F)(F)F)c2)c1

[7.66, 18.3, 14.6, 16.1, 41.2, 41, 83.7, 15.5]

Quick request: TGI for each listed item, please.
1. O=C1/C(=C/c2ccc(Oc3ccccc3)cc2)N=C(c2ccccc2)N1c1ccc(S(=O)(=O)Nc2nccs2)cc1
2. CCn1c(-c2nonc2N)nc2c(C#CC(C)(C)O)ncc(OC[C@H]3CCCNC3)c21
3. C=C(CO)[C@@H]1CC[C@]2(COC3CCCCO3)CC[C@]3(C)[C@H](CC[C@@H]4[C@@]5(C)C=C(C=O)C(=O)C(C)(C)[C@@H]5CC[C@]43C)[C@@H]12 (some centres not stated)
4. CCN(CC)C(=S)SC(C(=O)Nc1nnc(-c2ccccc2)o1)c1ccccc1 (configuration not stated)

1. 38
2. 22.9
3. 1.97
4. 47.7
